Assay System: Tubulin
Procedure Details: Inhibition of tubulin polymerization
Readout Name: IC50 (µM)
Numeric answer only, unit µM assumed.

State the recorded IC50 for this entry: CC(=O)Nc1ccc(C(=O)/C=C/c2ccccn2)cc1
15.7

Next:
State the recorded IC50 for this entry: CN(C)CC(=O)Nc1ccc(C(=O)/C=C/c2ccccn2)cc1
19.8

Data provenance is ChEMBL document CHEMBL1137260.
